Reference source: patent US10214512B2

This section presents molecules with their documented pKi values.
measurement.target: purified Human plasma Kallikrein (Homo sapiens (Human))
experimental.protocol: Kallikrein Assay
Assay type: biochemical
The value called pKi is obtained by taking minus log10 of the concentration in mol/L.

• O=C1CCCC[C@H](c2ccc(-c3cc(Cl)ccc3-n3cnnn3)c[n+]2[O-])c2cccc(c2)-c2cc(C(=O)O)ccc2N1 [Example 4-a] = 8.47

Now look at this entry.
Given the molecule O=C1CCCC[C@H](c2ccc(-c3cc(Cl)ccc3-n3cnnn3)c[n+]2[O-])c2cccc(c2)-c2cc(C(=O)O)ccc2N1 [Example 4-b] , write its reported pKi. 6.48

----------
measurement.target: purified Human plasma Kallikrein (Homo sapiens (Human), UniProt P03952)
Sequence (P03952 391-638): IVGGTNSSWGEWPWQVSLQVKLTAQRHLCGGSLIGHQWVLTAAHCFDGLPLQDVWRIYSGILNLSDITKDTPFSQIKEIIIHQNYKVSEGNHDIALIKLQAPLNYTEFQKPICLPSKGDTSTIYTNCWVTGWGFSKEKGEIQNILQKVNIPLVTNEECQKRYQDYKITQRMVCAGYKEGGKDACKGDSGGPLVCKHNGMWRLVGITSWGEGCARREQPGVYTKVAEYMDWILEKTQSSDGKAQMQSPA
Sequence (P03952 20-390 partner): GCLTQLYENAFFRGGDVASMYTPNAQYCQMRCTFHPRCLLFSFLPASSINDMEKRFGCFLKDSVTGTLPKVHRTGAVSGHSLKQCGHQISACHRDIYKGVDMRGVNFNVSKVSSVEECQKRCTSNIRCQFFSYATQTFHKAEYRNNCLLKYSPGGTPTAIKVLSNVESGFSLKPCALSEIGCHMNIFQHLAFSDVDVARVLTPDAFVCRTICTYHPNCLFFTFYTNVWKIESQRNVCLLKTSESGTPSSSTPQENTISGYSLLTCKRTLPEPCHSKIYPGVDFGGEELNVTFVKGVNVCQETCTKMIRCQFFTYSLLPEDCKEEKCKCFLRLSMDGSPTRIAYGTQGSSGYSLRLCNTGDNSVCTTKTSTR
experimental.protocol: Kallikrein Assay
Type: biochemical
test.conditions: purified Human plasma Kallikrein 0.5 nM; substrate Acetyl-K-P-R-AFC; 50 mM HEPES pH 7.4; Ki from IC50 by Cheng Prusoff
This section presents molecules with their documented pKi values.
The value called pKi is obtained by taking minus log10 of the concentration in mol/L.

- COC(=O)Nc1ccc2c(c1)NC(=O)CC[C@H](C)C[C@H](c1ccc(-c3c(F)ccc(Cl)c3F)c[n+]1[O-])c1nc-2c(C)[nH]1 (single isomer, unassigned): 7.97

Given the molecule COC(=O)Nc1ccc2c(c1)NC(=O)CCCCC(c1ccc(-c3cc(Cl)ccc3-n3cnnn3)cn1)c1nc-2c[nH]1 (stereo not drawn) , write its reported pKi. 6.79

Given the molecule COC(=O)Nc1ccc2c(c1)NC(=O)[C@@H](C)CCC[C@@H](c1ccc(-c3c(F)cccc3F)c[n+]1[O-])c1nc-2c(C)[nH]1 (single isomer, unassigned) , write its reported pKi. 8.23
